# SYSTEM: recombinant soluble homotrimeric HA, A/Indonesia/5/05 H5N1 (Influenza A virus A/Indonesia/5/2005(H5N1))
# ASSAY NOTES: microarray, transfection SN IgG, trimeric HA
# COND: remark: other sources report otherwise
Exercise: state measured Trimeric HA Binding: RLU for each of the binders provided.

INPUT: Entry under review: TCN-553 (5261_C18) (antibody, V domains shown) VH: QVQVVQSGTEVKKPGSSVKVSCQTSGGRFMSYAITWVRQAPGQGLEWMGGIVPVFGTANYAQKFQGRVTITTDDSTRTAYMELSSLRSEDTAVYYCGFRYGSGYGFDSWGQGTLVTVSS VL: EIVLTQSPGTLSLSPGERATLSCRASQSVSSSYLAWYQKKPGQAPRLLIYGASTRATGIPDRFTGSGSGTDFTLSISRLEPEDFAVYYCQHFGTSVFTFGGGTKVEIK . Reported Trimeric HA Binding: RLU?
OUTPUT: 31200 RLU

INPUT: Please give the result for TCN-555 (5246_L16) (antibody, V domains shown) VH: QVQLVQSGAEVKRPGSSVKVSCTASGGIFRKNAISWVRQAPGQGLEWMGGIIAVFNTANYAQKFQNRVKITADESGNTAYMELSSLTSDDTAVYYCASHPKYFYGSGSYPDFWGQGTLVTVSS VL: QSALTQPRSVSGSPGQSITISCTGGSSDIGASNSVSWYQQHPGKAPKLVIFDVTERPSGVPHRFSGSKSGNTASLTVSGLQPDDEADYFCCAYGGKYLVVFGGGTKVTVL too.
OUTPUT: 33900 RLU

INPUT: Try the binder TCN-504 (3251_K17) (antibody, V domains shown) VH: QVQLQESGPGLVKPSETLSLTCAVSGVSISNIDFYWGWIRQPPGKGLEWIGNIYYTGITFYNPSLSSRVAISIDTSKNQFSLTLTSVTAADTAMYYCARHYGDSEAINDAFDIWGQGTMLTVSS VL: EIVMTQSPATLSVSPGERATLSCRASQSVGNSLAWYQQRPGQAPRLLIYGASTRATGIPPRFSGSGSGTEFTLTISSLQTEDFAVYYCQQYINWRPLSFGGGTKVEIK
OUTPUT: 18500 RLU
